# test.target: T1, O772P 3-repeat recombinant protein (human)
# T1 construct: Repeats are residues 14-452 of the entry
# T1 chain: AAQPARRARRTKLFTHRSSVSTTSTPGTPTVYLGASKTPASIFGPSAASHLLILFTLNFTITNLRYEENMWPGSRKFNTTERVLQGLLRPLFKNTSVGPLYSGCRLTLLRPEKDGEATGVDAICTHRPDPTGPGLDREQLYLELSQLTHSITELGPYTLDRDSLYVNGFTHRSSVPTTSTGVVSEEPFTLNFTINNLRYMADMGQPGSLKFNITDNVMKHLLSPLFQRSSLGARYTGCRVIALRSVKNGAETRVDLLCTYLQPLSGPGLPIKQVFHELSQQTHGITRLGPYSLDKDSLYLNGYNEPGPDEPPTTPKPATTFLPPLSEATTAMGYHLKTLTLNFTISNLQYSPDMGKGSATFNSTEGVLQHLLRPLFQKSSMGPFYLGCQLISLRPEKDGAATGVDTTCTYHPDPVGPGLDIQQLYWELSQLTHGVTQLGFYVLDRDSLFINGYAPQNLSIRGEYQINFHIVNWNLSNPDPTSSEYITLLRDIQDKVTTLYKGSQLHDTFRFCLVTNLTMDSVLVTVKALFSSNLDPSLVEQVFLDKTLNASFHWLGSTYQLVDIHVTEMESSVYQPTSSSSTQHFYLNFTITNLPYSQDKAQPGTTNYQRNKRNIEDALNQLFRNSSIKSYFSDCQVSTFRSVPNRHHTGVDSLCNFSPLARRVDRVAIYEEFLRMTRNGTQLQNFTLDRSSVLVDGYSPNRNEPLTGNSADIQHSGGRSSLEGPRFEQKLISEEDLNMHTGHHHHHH
# method.description: BIAcore SPR, O772P 3-repeat immobilized, mAb injected
recorded.metric: Kd (nM)
Report the value in nM with no unit label.

Recorded Kd, per entry:
[[record]]
binder = "monoclonal antibody 368.1 (antibody, V domains shown, Murine hybridoma antibody) VH: EVQLQQSGPELVRTGASVKISCKASGYSFTGFYMHWVKQSLGKSLEWIGYVSCYTGATTYTQKFKGKATFTVDTSSSTAYMQLNSLTSEDSAVYYCAREGDYYSMDFWGQGTSVTVSS VL: DVVMTQTPLSLPVSLGDQASISCRSSQSLERTNGNTYLHWYLQKPGQSPKLLIYKVSSRFSGVPDRFSGSGSGTDFTLKISRVEAEDLGIYFCSQTTHGPPTCGGGTKLEIK"
unit_abbreviation = "nM"
measured = 0.7

[[record]]
binder = "monoclonal antibody 117.1 (antibody, V domains shown, Murine hybridoma antibody) VH: QVTLKESGPGILQPSQTLSLTCSFSGFSLSTPGMGVGWIRQPSGKGLEWLAHIWWDDFKRDNPALKSRLTISKDTSSSQVFLKIASVDTADTATYYCVRVDGNFLSWYFDVWGAGTTVTVSS VL: DAVMTQTPLSLPVSLGDQASISCRSSQSLVHSNGNTYLHWYLQKPGQSPKLLIYKVSNRFSGVPDRFSGSGSGTDFTLRISRVEAEDLGVYFCSQSRYVPWTFGGGTKLEIK"
unit_abbreviation = "nM"
measured = 12

[[record]]
binder = "monoclonal antibody 501.1 (antibody, V domains shown, Murine hybridoma antibody) VH: QIQLVQSGPELKKPGETVQISCKASGYIFTDYGMNWVKQAPGKGLKWMGCINTYTGETIYSDDFRGRFAISLETSASTAFIQINNLKNEDAATYFCARGNYRDAIDYWGQGTSVTVSS VL: DIKMTQSPSSIYASLGERVTITCKASQDIKSYLSWYQQKPWKSPKTLIYYATTLADGVPSRFSGSGSGQDYSLIINSLESDDIATYFCLHHDESPFTFGSGTKLEI"
unit_abbreviation = "nM"
measured = 70


// Kd lookup, binder = monoclonal antibody 725.1 (antibody, V domains shown, Murine hybridoma antibody; also called hybridoma 725.1 (ATCC PTA-5124)) VH: QIQLVQSGPELKKPGETVKISCKASGYSFTNYGMNWVKQAPGKGLKWMGWINAYIGEPTYADDFKGRFAFSLEASTHTAYLQINSLKSEDTATYFCASGGNSLDFWGQGTTLTVSS VL: QIILSQSPAILSASPGEKVTMTCRASSSVSSIHWYQQKPESSPKPWIYATSNLASGVPVRFSGSGSGTSYTLTISRMEAADAATYYCQQWSIDPATFGGGTKLEI , result: 2.6

// Kd lookup, binder = OC125 (antibody) chain 1: QVQLQESGPELVKPGASVKISCKASGYTFTDYNMHWVKQSHGKSLEWIGYIYPYNGDTGYNQKFRNKASLTVDTSSSTAYMELRSLTSEDSAVYYWARSGGFWYFDVWGQGGTTVTVSS chain 2: DIQMTQSPAILSASPGEKVTMTCRATPSVSYMHWYQQKPGSSPKPLIYTTSNLASGVPARFSGGGSGTSYSLTVSRVEVEDAATYYCQQWSRSPPTFGAGTKLEIK , result: 4

// Kd lookup, binder = monoclonal antibody 776.1 (antibody, V domains shown) VH: EVQLQQSGPELVKPGASVKISCKASGYTFTDYNIHWVKQSHGKILEWIGYIYPYNGVSDYNQNFKSKATLIVDNSSNTAYMELRSLTSEDSAVYYCARWDFGSGYYFDYWGQGTTLTVSS VL: QIVLSQSPAILFASPGETVTMTCRASSSVIYMCWNQQKPGSSPKPWIYGTSTLASGVPTRFSGSGSGTSYSLTISRVEAEDAATYYCQQWSSNPFTFGSGTKLEI , result: 0.4

// Kd lookup, binder = monoclonal antibody 16H9 (antibody, V domains shown, Murine hybridoma antibody; also called hybridoma 16H9 (ATCC PTA-5108)) VH: EVQLQQSGAELVKPGASVKLSCTASGFNIKDTYMHWVKQRPEQGLEWIGRIDPANGNTKYDPKFQGKATITADTSSNTAYVQLSSLTSEDTAVYYCASSDIYYGNPGGFAYWGQGTLVTVSA VL: QIVLTQSPAIMSASLGERVTMTCTASSSVSSSYLHWYQQKPGSSPKLWIYSTSNLASGVPARFSGSGSGTSYSLTISSMEAEDAATYYCHQYHRSPFTFGSGTKLEI , result: 3.9
